- system_tested: T1, human PD-L1, full-length, on CHO cells (human, UniProt Q9NZQ7 19-290)
- T1 construct: also called huPD-L1; CD274
- assay_comment: flow cytometry, CHO cells stably expressing PD-L1
measurement_name: MFI at 33.3 nM
I'd appreciate it if you included the unit after the number.

binder	MFI at 33.3 nM
variant CD80 IgV-Fc N48K (Fc fusion, not shown: small tags and cut ends; a dimerising Fc or GST) VIHVTKEVKEVATLSCGHNVSVEELAQTRIYWQKEKKMVLTMMSGDMKIWPEYKNRTIFDITNNLSIVILALRPSDEGTYECVVLKYEKDAFKREHLAEVTLSVKAD	481 MFI
variant CD80 IgV-Fc D46V/M47L/V68M/L85Q (Fc fusion, not shown: small tags and cut ends; a dimerising Fc or GST) VIHVTKEVKEVATLSCGHNVSVEELAQTRIYWQKEKKMVLTMMSGVLNIWPEYKNRTIFDITNNLSIMILALRPSDEGTYECVVQKYEKDAFKREHLAEVTLSVKAD	29700 MFI

Give measured MFI at 33.3 nM for every item shown.
1. variant CD80 IgV-Fc M47L (Fc fusion, not shown: small tags and cut ends; a dimerising Fc or GST) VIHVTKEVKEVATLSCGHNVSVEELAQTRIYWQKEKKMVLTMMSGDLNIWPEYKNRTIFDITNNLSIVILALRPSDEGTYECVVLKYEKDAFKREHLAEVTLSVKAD
2. variant CD80 IgV-Fc E35D/N48K (Fc fusion, not shown: small tags and cut ends; a dimerising Fc or GST) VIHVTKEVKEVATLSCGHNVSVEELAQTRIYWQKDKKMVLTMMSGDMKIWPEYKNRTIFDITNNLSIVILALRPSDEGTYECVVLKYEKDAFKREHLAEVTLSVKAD

["1900 MFI", "6540 MFI"]
